# Target Or System: Bcl-2 protein (Recombinant Human Bcl-2 Protein) (Homo sapiens)
# Construct: purchased Novus NBP2-34889
# Assay Overview: Binding evaluation of mixture library compounds to Bcl-2 using AS-MS (affinity selection mass spectrometry)
# Test Settings: AS-MS, mixture of 1200 compounds, Bcl-2; ASMS Ratio(%)=(A−C)/B×100; replicate n = 2
Each record here notes measured ASMS ratio (%) n = 2.

Worked examples, 4 compounds total:
> print(dat)
                  compound.structure.string                          target.or.system  endpoint.result
1  CCOc1cccc(-c2ccc(C(=O)N3CCN(c4ccc(C(=O)NCC56CC7CC(CC(C7)C5)C6)nn4)CC3)c3ccccc23)c1  Bcl-2 protein (Recombinant Human Bcl-2 Protein) (Homo sapiens)             2.4%
2  CCOc1cccc(-c2ccc(C(=O)N3CCN(c4ccc(C(=O)NCC(F)(F)F)nn4)CC3)c3ccccc23)c1  Bcl-2 protein (Recombinant Human Bcl-2 Protein) (Homo sapiens)             1.4%
3  CCOc1cncc(C#Cc2cc(C(=O)N3CCN(c4ccc(C(=O)NCC(F)(F)F)cc4)CC3)cc(C(F)(F)F)c2)c1  Bcl-2 protein (Recombinant Human Bcl-2 Protein) (Homo sapiens)            −0.1%
4  CCOc1cccc(C#Cc2cncc(C(=O)N3CCN(c4ccc(C(=O)NCC56CC7CC(CC(C7)C5)C6)cc4)CC3)c2)c1  Bcl-2 protein (Recombinant Human Bcl-2 Protein) (Homo sapiens)            −1.8%

Problem: Return the recorded ASMS ratio (%) n = 2 value; entry: CCOc1cncc(-c2ccc(CN3CCN(c4ccc(C(=O)NCC56CC7CC(CC(C7)C5)C6)nn4)CC3)cc2C)c1
Solution: −0.1%

----------
# Target Or System: Bcl-2 protein (Recombinant Human Bcl-2 Protein) (Homo sapiens, UniProt P10415)
# Construct: purchased Novus NBP2-34889
# Sequence (P10415 whole entry): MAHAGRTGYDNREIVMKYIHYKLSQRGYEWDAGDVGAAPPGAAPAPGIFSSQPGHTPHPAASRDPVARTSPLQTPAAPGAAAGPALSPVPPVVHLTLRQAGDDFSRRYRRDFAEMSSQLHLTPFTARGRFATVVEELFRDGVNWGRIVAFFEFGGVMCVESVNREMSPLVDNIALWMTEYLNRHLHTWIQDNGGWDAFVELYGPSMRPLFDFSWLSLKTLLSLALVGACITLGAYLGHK
# Assay Overview: Binding evaluation of mixture library compounds to Bcl-2 using AS-MS (affinity selection mass spectrometry)
# Test Settings: AS-MS, mixture library, Bcl-2; replicate n = 2; ASMS Ratio(%)=(A−C)/B×100
# Protocol: […] Then, analysis of the 1200 compounds was carried out for samples A, B, and C with TraceFinder 5.1 (Thermo Fisher Scientific) and CHANCE Software (in-house), and the ASMS Ratio (%) was calculated according to the following calculation formula. […]
Each record here notes measured ASMS ratio (%) n = 2.
Please reply with the bare figure in % and do not write the unit itself.

> print(dat)
                                   compound  endpoint.result
1  CCOc1cccc(-c2ccc(C(=O)N3CCN(c4ccc(C(=O)NS(C)(=O)=O)nn4)CC3)cc2F)c1 [B2I005-01]              0.0
2  CCOc1cccc(-c2cc(CN3CCN(c4ccc(C(=O)N(CC)CC)cc4)CC3)cc(OC(F)(F)F)c2)c1 [B4J063-01]              0.1

Now for another entry.
Problem: Answer briefly: ASMS ratio (%) n = 2 recorded on Bcl-2 protein (Recombinant Human Bcl-2 Protein) (Homo sapiens, UniProt P10415) for CCOc1cncc(-c2ccccc2CCC(=O)N2CCN(c3ccc(C(=O)NS(=O)(=O)c4ccc(NCCSc5ccccc5)c([N+](=O)[O-])c4)cc3)CC2)c1 [B2Q034-01]
Solution: 0.0

----------
# Target Or System: Bcl-2 protein (Recombinant Human Bcl-2 Protein) (Homo sapiens)
# Construct: purchased Novus NBP2-34889
# Assay Overview: Binding evaluation of mixture library compounds to Bcl-2 using AS-MS (affinity selection mass spectrometry)
# Test Settings: AS-MS, mixture library, Bcl-2; replicate n = 2; ASMS Ratio(%)=(A−C)/B×100
# Procedure: […] Then, analysis of the 1200 compounds was carried out for samples A, B, and C with TraceFinder 5.1 (Thermo Fisher Scientific) and CHANCE Software (in-house), and the ASMS Ratio (%) was calculated according to the following calculation formula. […]
Each record here notes measured ASMS ratio (%) n = 2.
Please reply with the bare figure in % and do not write the unit itself.

> print(dat)
                  compound.structure.string  scale.unit  endpoint.result
1  CCOc1cccc(-c2cc(CN3CCN(c4ccc(C(=O)N(CC)CC)nn4)CC3)cc(OC(F)(F)F)c2)c1           %              0.4

Problem: Return the recorded ASMS ratio (%) n = 2 value; entry: CCOc1cccc(-c2ccc(C(=O)N3CCN(c4ccc(C(=O)NS(=O)(=O)CC56CC7CC(CC(C7)C5)C6)nn4)CC3)cc2C)c1
Solution: 11.0

Problem: Return the recorded ASMS ratio (%) n = 2 value; entry: CCOc1cccc(-c2ccc(CN3CCN(c4ccc(C(=O)NS(=O)(=O)c5ccc(NCCSc6ccccc6)c([N+](=O)[O-])c5)nn4)CC3)cc2F)c1
Solution: 17.2

Problem: Return the recorded ASMS ratio (%) n = 2 value; entry: CCOc1cncc(-c2ccc(CN3CCN(c4ccc(C(=O)NS(=O)(=O)CC56CC7CC(CC(C7)C5)C6)nn4)CC3)c(OC)c2)c1
Solution: 0.0

Problem: Return the recorded ASMS ratio (%) n = 2 value; entry: CCOc1cccc(C#Cc2ccccc2CN2CCN(c3ccc(C(=O)N(CC)CC)cc3)CC2)c1
Solution: −0.8

Problem: Return the recorded ASMS ratio (%) n = 2 value; entry: CCOc1cccc(-c2cc(CN3CCN(c4ccc(C(=O)N(CC)CC)cc4)CC3)cc(C(F)(F)F)c2)c1
Solution: −1.8

----------
Each record here notes measured ASMS ratio (%).
# Target Or System: Bcl-2 protein (Recombinant Human Bcl-2 Protein) (Homo sapiens, UniProt P10415)
# Construct: purchased Novus NBP2-34889
# Assay Overview: Binding evaluation of mixture library compounds to Bcl-2 using AS-MS (affinity selection mass spectrometry)
# Test Settings: n = 1
Please reply with the bare figure in % and do not write the unit itself.

Worked examples, 2 molecules total:
> print(dat)
                  compound.structure.string  scale.unit  endpoint.result
1  CCOc1cncc(-c2csc(CN3CCN(c4ccc(C(=O)NS(=O)(=O)CCC(F)(F)F)nn4)CC3)c2)c1           %              0.0
2  CCOc1cncc(-c2ccc(CN3CCN(c4ccc(C(=O)NS(=O)(=O)CCC(F)(F)F)cc4)CC3)c(OC)c2)c1           %              0.0

Now for another entry.
Problem: Return the recorded ASMS ratio (%) value; entry: CCOc1cncc(-c2csc(CN3CCN(c4ccc(C(=O)NS(=O)(=O)CCC(F)(F)F)cc4)CC3)c2)c1
Solution: 0.0

----------
Each record here notes measured ASMS ratio (%) n = 2.
# Target Or System: Bcl-2 protein (Recombinant Human Bcl-2 Protein) (Homo sapiens)
# Construct: purchased Novus NBP2-34889
# Assay Overview: Binding evaluation of mixture library compounds to Bcl-2 using AS-MS (affinity selection mass spectrometry)
# Test Settings: AS-MS, mixture library, Bcl-2; replicate n = 2; ASMS Ratio(%)=(A−C)/B×100
Please reply with the bare figure in % and do not write the unit itself.

Worked examples, 5 compounds total:
Compound	Scale Unit	ASMS ratio (%) n = 2
CCOc1cccc(-c2ccccc2CCC(=O)N2CCN(c3ccc(C(=O)NS(C)(=O)=O)cc3)CC2)c1 [B2I033-01]	%	0.0
CCOc1cncc(-c2ccc(C(=O)N3CCN(c4ccc(C(=O)NS(=O)(=O)CC56CC7CC(CC(C7)C5)C6)nn4)CC3)cc2F)c1 [B2A006-01]	%	0.0
CCOc1cncc(-c2ccccc2CCC(=O)N2CCN(c3ccc(C(=O)NS(C)(=O)=O)nn3)CC2)c1 [B2I012-01]	%	−0.2
CCOc1cccc(-c2cc(OC)c(CN3CCN(c4ccc(C(=O)NS(=O)(=O)c5ccc(NCCSc6ccccc6)c([N+](=O)[O-])c5)nn4)CC3)c(OC)c2)c1 [B2Q085-01]	%	0.7
CCOc1cncc(-c2cc(CN3CCN(c4ccc(C(=O)NS(=O)(=O)c5ccc(NCCSc6ccccc6)c([N+](=O)[O-])c5)cc4)CC3)cc(OC(C)C)c2)c1 [B2Q058-01]	%	3.7

Problem: Return the recorded ASMS ratio (%) n = 2 value; entry: CCOc1cncc(-c2csc(CN3CCN(c4ccc(C(=O)NS(=O)(=O)CC56CC7CC(CC(C7)C5)C6)cc4)CC3)c2)c1 [B2A068-01]
Solution: 0.0

Problem: Return the recorded ASMS ratio (%) n = 2 value; entry: CCOc1cncc(-c2cc(C(=O)N3CCN(c4ccc(C(=O)NS(=O)(=O)c5ccc(NCCSc6ccccc6)c([N+](=O)[O-])c5)nn4)CC3)cc(C(F)(F)F)c2)c1 [B2Q018-01]
Solution: 0.0

Problem: Return the recorded ASMS ratio (%) n = 2 value; entry: CCOc1cncc(-c2ccc(C(=O)N3CCN(c4ccc(C(=O)NS(=O)(=O)c5ccc(NCCSc6ccccc6)c([N+](=O)[O-])c5)cc4)CC3)cc2F)c1 [B2Q028-01]
Solution: −3.7

Problem: Return the recorded ASMS ratio (%) n = 2 value; entry: CCOc1cncc(C#Cc2ccccc2C(=O)N2CCN(c3ccc(C(=O)NS(=O)(=O)c4ccc(NCCSc5ccccc5)c([N+](=O)[O-])c4)nn3)CC2)c1 [B2Q008-01]
Solution: 0.5
